test system: Saccharomyces cerevisiae; test: protein stability index of tFT-peptide fusion (C-terminal peptide) (PSI (0-1 scale)); higher = more stable (slower turnover); settings: genetic background: wild type; temperature: 37 C;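 also: PSI is a weighted mean of sequencing reads over stability bins, variants kept only with over 10 reads, mCherry proximal and sfGFP distal, peptide attached via GGGS linker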
Rule: protein stability index of 0.4 or more gives criterion met; anything lower gives criterion not met.

Does protein stability index meet or surpass 0.4 for YVVCFFFKLFYF ? criterion not met

***
Given the entry VTRLLLSRIDCY , answer whether its protein stability index meets or surpasses 0.4. criterion met

Item LRNYKCLRLLIC with protein stability index of 0.4 or above? criterion not met

Please check the record LFFFSFSFLFFL and state if its protein stability index is at or above 0.4. criterion not met

Test whether the sequence LRPTFLLLFRPL records protein stability index of 0.4 or higher. criterion met

Reported protein stability index reaches at least 0.4 for MVVILLVHWEYV ? criterion not met

Item SNFDVRRLLVIQ with protein stability index of 0.4 or above? criterion met
